Attribute: cGMP Assay (EC50, pM) w/BSA, hNPRA
- Target or test system: T1, human NPRA (human, UniProt P16066 33-1061)
- T1 sequence (looked up): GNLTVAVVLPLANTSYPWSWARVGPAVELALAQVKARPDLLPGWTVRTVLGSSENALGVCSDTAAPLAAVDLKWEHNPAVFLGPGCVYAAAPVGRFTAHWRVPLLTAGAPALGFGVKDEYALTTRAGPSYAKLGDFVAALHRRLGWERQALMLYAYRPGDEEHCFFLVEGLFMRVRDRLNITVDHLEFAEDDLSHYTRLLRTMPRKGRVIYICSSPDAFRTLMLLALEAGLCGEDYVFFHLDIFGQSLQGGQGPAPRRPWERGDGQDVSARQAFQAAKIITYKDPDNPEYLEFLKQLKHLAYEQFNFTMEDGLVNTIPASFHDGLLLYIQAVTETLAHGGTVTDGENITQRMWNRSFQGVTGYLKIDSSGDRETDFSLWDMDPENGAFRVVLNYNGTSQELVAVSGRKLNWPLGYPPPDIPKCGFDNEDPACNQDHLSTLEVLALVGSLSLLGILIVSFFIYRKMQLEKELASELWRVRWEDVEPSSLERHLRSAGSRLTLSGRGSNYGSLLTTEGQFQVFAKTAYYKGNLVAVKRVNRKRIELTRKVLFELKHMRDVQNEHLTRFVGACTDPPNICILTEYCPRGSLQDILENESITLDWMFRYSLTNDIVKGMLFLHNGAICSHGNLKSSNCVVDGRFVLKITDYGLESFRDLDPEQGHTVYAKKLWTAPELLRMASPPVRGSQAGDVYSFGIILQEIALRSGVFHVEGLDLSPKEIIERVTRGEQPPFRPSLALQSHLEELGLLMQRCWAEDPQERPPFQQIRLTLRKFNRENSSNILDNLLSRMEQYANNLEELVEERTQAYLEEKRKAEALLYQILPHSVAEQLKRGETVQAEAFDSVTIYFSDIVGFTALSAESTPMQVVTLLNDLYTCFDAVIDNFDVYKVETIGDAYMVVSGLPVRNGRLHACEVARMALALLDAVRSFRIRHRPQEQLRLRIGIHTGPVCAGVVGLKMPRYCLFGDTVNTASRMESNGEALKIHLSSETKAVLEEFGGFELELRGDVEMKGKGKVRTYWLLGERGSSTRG
- Protocol description: cell-based or functional assay
Numbered stars: 1 amine (or outer) side, 2 acyl side, 3 side chain; on linkers, the order of the positions; unused ones are H or OH. Bridge positions count the residues as written; N and C are the ends. Square brackets hold non-standard residues; d marks the D form. * marks the point of attachment. thioacetal = thioacetal linkage between two cysteines (intrachain bond at the bracketed Cys); C20 diacid = O=C(O)CCCCCCCCCCCCCCCCCCC(=O)*; γGlu = O=C(O)[C@H](CCC(=O)[*:2])N[*:1]; Orn = NCCC[C@H](N)C(=O)O
Respond with the bare value in pM.

A selection of reference data follows.
Binder	cGMP Assay (EC50, pM) w/BSA, hNPRA
EKPRSSCFGKRIDRIGHYSGLGCPSFRHGSPSSGAPPPS (N-terminus acylated with HOOC-(CH2)18-CO-(γGlu)-; PEG24 after EKEKEKG; thioacetal linkage between the two bracketed Cys; C-terminal amide) [HOOC-(CH2)18-CO-(γGlu)-EKEKEKG-PEG24-EKPRSS[CFGKRIDRIGHYSGLGC]PSFRHGSPSSGAPPPS-NH2]	5170
{C20 diacid-γGlu}-EKEKEKGEKPRSSCFGKRIDRIG[Orn]YSGLGCPSFRHGSPSSGAPPPS-NH2 (bridge 14-30 via thioacetal) [HOOC-(CH2)18-CO-(γGlu)-EKEKEKGEKPRSS[CFGKRIDRIG-Orn-YSGLGC]PSFRHGSPSSGAPPPS-NH2]	104000

Item EKXRSSCFGKRIDRIGHYSGLGCPSFRHGGKSSGAPPPS (N-terminus acylated with HOOC-(CH2)18-CO-(γGlu)-; PEG24 after EKEKEKG; βAla; thioacetal linkage between the two bracketed Cys; C-terminal amide) [HOOC-(CH2)18-CO-(γGlu)-EKEKEKG-PEG24-EK-βAla-RSS[CFGKRIDRIGHYSGLGC]PSFRHGGKSSGAPPPS-NH2] has what recorded cGMP Assay (EC50, pM) w/BSA, hNPRA?
3490

Can you handle SXRRSSCFGKRIDRIGHYSGLGCPSFRHGSPSSGAPPPS (N-terminus acylated with HOOC-(CH2)18-CO-(γGlu)-; (AEEA)6 after EKEKEKG; 4Pal; thioacetal linkage between the two bracketed Cys; C-terminal amide) [HOOC-(CH2)18-CO-(γGlu)-EKEKEKG-(AEEA)6-S-4Pal-RRSS[CFGKRIDRIGHYSGLGC]PSFRHGSPSSGAPPPS-NH2] next?
6020

Can you handle SXRRSSCFGKRIDRIGHYSGLGCPSFRHGGKSSGAPPPS (N-terminus acylated with HOOC-(CH2)18-CO-(γGlu)-; PEG24 after EKEKEKG; 4Pal; thioacetal linkage between the two bracketed Cys; C-terminal amide) [HOOC-(CH2)18-CO-(γGlu)-EKEKEKG-PEG24-S-4Pal-RRSS[CFGKRIDRIGHYSGLGC]PSFRHGGKSSGAPPPS-NH2] next?
2210
